Taken from paper PMC4780725.

tested on: GES-1 cells; test: MTT cell viability assay, GES-1 normal gastric mucosa epithelial cells; assay type: cell-based; conditions: Homo sapiens, GES1, 72 h, read-out: IC50 values of compounds on cells, GES-1
Here the recorded IC50 is given for each entry.
Number in µM, nothing else.

# annotated cases, reported IC50 shown
> print(dat)
                                   compound  observed.value
1  COc1cccc(/C=C/C(=O)/C=C/c2cccc(OC)c2OC)c1OC [Compound B19]             3.7
2  COc1cc(/C=C/C(=O)CC(=O)/C=C/c2ccc(O)c(OC)c2)ccc1O [CUR, curcumin, reference compound]            29.1
3  Cc1ccc2nc(NCCN)c3ncc(C)n3c2c1 [BMS345541, reference compound]             9.8

**Q:** # get_value(readout='IC50', item= COc1ccc(OC)c(/C=C2\CC/C(=C\c3ccc(O)c(OC)c3)C2=O)c1 [Da0324] )
**A:** 27.3
